Target: T1, Human Siglec-15, His Tag (human Siglec-15 full-length extracellular domain linked with His tag) (human, UniProt Q6ZMC9 20-263)
T1 construct: Bought from ACROBiosystems; also called Siglec-15 protein; SG5-H52H3
T1 sequence: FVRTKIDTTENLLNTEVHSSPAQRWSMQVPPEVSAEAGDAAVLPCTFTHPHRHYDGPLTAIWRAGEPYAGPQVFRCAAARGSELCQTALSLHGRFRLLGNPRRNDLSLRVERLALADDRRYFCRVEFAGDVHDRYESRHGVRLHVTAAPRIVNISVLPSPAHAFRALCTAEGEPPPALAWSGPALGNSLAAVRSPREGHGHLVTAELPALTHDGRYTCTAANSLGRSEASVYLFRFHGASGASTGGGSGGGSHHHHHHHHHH
Experiment: Octet BLI epitope binning, Siglec-15 His on HIS1K sensor; competitor 21F6C6
Method: Epitope binning assays were performed using the Octet RED96e (ForteBio) System for the antibodies tested. Human Siglec-15, His Tag (Cat. No. SG5-H52H3) (5 μg/mL) was captured by the HIS1K biosensor and bound to primary antibody (100 nM) for 180 s. Then, the Human Siglec-15, His Tag (antigen)-primary antibody was bound to secondary antibody (100 nM) on the biosensors for 90 s. Data analysis was performed using Octet RED96e (ForteBio) analysis software.
cross-competition score values, listed per item
State just the number; it will be interpreted in %.

binder | value_observed
75E1F2 chimeric antibody (antibody, V domains shown, Mouse variable regions combined with human IgG1 (N297A) constant regions) VH: EVQLVESGGGSVKPGGSLKLSCAASGFTFSDYGMHWVRQAPEKGLEWITYISSGSSIIDYSDTVKGRFTISRDNAKDTLFLQMTSLRSEDTAIYYCVRREDHYAMDYWGQGTSVTVSS VL: DIVMTQSHKFLSTSVGDRVSITCKASQDVYTAVAWFQQKPGQSPKLLFYSASYRFTGVPDRFNGSGSGTDFTLTITSMQAEDLAVYYCQQHYSTPWTFGGGTKLEIK | 23.3
124B11F6 chimeric antibody (antibody, human IgG1, V domains shown, also called 124B11F6-mHL) VH: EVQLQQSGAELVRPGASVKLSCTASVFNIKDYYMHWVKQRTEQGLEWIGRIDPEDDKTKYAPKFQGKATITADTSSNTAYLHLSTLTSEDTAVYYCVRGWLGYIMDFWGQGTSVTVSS VL: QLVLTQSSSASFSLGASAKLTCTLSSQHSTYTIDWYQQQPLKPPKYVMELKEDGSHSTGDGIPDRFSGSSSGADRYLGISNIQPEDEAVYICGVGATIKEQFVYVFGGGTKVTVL | 108

// next entry
**Q:** What value of cross-competition score has been recorded for this entry: 174C11C9 chimeric antibody (antibody, human IgG1, V domains shown, also called 174C11C9-mHL) VH: EVQLQQSGPVLVKPGASVKMSCEASGYIFTDYYMNWVKQSPGKSLEWIGVFNPYSGGISYNQKFKGKATLTVDTSSSTAYMELNSLTSEDSAVYYCARDYYYLSSHGFYALDYWGQGTSVTVSS VL: DIVLTQSPASLAVSLGQRATISCRASESVDSYGNSFIHWYQQRPGRPPKLLMYRASNLESGIPARFSGSGSRTDFTLTIDPVEADDVATYYCQQSNEDPLTFGAGTKLELK
**A:** 7.68

Data provenance is patent US20240092897A1.
